Experiment: In vivo biodistribution and regional brain uptake in rats
Conditions: male SD rats, i.v., 60 min p.i.
measuredQuantity: Biodistribution, fat (%ID/gram)
Record the value in %ID/gram, omitting the unit from your answer.

Record excerpt, results attached:
{"columns": ["compound", "measuredQuantity", "val"],
 "data": [
  ["Cn1cc(-c2ccncc2)c(-c2ccc(OCc3nc4ccccc4cc3O[11CH3])cc2)n1 [[^11C]1]", "Biodistribution, fat", 0.500],
  ["Cn1cc(-c2ccncc2)c(-c2ccc(OCc3cc(O[11CH3])c4ccccc4n3)cc2)n1 [[^11C]2]", "Biodistribution, fat", 0.278],
  ["Cn1ncc(-c2ccncc2)c1-c1ccc(OCc2cc(O[11CH3])c3ccccc3n2)cc1 [[^11C]4]", "Biodistribution, fat", 0.139]
]}

# get_value(readout='Biodistribution, fat', item= Cn1cc(-c2ccncc2)c(-c2ccc(OCc3ccc4cc(O[11CH3])ccc4n3)cc2)n1 [[^11C]3] )
0.135

* * *

Assay: In vivo biodistribution and regional brain uptake in rats
Details: male SD rats, i.v., 60 min p.i.
Collected Biodistribution, kidney values appear next to each entry.
Your answer should be a plain number; it is taken to be in %ID/gram.

{"columns": ["molecule", "Biodistribution, kidney / %ID/gram"],
 "data": [
  ["Cn1ncc(-c2ccncc2)c1-c1ccc(OCc2cc(O[11CH3])c3ccccc3n2)cc1 [[^11C]4]", 0.575]
]}

State the recorded Biodistribution, kidney for this entry: Cn1cc(-c2ccncc2)c(-c2ccc(OCc3nc4ccccc4cc3O[11CH3])cc2)n1 [[^11C]1]
1.275

Item: Cn1cc(-c2ccncc2)c(-c2ccc(OCc3ccc4cc(O[11CH3])ccc4n3)cc2)n1 [[^11C]3]
0.637

Thanks! And Cn1cc(-c2ccncc2)c(-c2ccc(OCc3cc(O[11CH3])c4ccccc4n3)cc2)n1 [[^11C]2] ?
0.758

* * *

Assay: In vivo biodistribution and regional brain uptake in rats
Conditions: male SD rats, i.v., 30 min p.i. (control)
Recorded Biodistribution, kidney, one value per entry.
Please make sure the unit comes right after the number.

Check out these entries, answers already filled in.
{"columns": ["molecule", "Biodistribution, kidney"],
 "data": [
  ["Cn1ncc(-c2ccncc2)c1-c1ccc(OCc2cc(O[11CH3])c3ccccc3n2)cc1 [[^11C]4]", "0.645 ± 0.088 %ID/gram"],
  ["Cn1cc(-c2ccncc2)c(-c2ccc(OCc3cc(O[11CH3])c4ccccc4n3)cc2)n1 [[^11C]2]", "1.294 ± 0.268 %ID/gram"],
  ["Cn1cc(-c2ccncc2)c(-c2ccc(OCc3nc4ccccc4cc3O[11CH3])cc2)n1 [[^11C]1]", "1.647 ± 0.459 %ID/gram"]
]}

Moving on to the next molecule.
State the recorded Biodistribution, kidney for this entry: Cn1cc(-c2ccncc2)c(-c2ccc(OCc3ccc4cc(O[11CH3])ccc4n3)cc2)n1 [[^11C]3]
0.883 ± 0.123 %ID/gram

* * *

Reported Biodistribution, muscle is given for each of the following compounds.
Assay: In vivo biodistribution and regional brain uptake in rats
Conditions: male SD rats, i.v., 60 min p.i.

Examples from the recorded data:
{"columns": ["compound", "measuredQuantity", "val"],
 "data": [
  ["Cn1cc(-c2ccncc2)c(-c2ccc(OCc3cc(O[11CH3])c4ccccc4n3)cc2)n1 [[^11C]2]", "Biodistribution, muscle", "0.084 ± 0.013 %ID/gram"],
  ["Cn1cc(-c2ccncc2)c(-c2ccc(OCc3nc4ccccc4cc3O[11CH3])cc2)n1 [[^11C]1]", "Biodistribution, muscle", "0.142 ± 0.014 %ID/gram"],
  ["Cn1ncc(-c2ccncc2)c1-c1ccc(OCc2cc(O[11CH3])c3ccccc3n2)cc1 [[^11C]4]", "Biodistribution, muscle", "0.052 ± 0.009 %ID/gram"]
]}

# next compound below
Query (compound): Cn1cc(-c2ccncc2)c(-c2ccc(OCc3ccc4cc(O[11CH3])ccc4n3)cc2)n1 [[^11C]3] ; field requested: Biodistribution, muscle
0.129 ± 0.006 %ID/gram
